B1: VH:VL chains; a variant is named by its letters at X, in order (parent)
chain 1: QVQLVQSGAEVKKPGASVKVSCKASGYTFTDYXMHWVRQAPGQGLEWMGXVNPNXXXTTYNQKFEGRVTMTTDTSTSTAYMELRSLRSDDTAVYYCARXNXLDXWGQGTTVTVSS
chain 2: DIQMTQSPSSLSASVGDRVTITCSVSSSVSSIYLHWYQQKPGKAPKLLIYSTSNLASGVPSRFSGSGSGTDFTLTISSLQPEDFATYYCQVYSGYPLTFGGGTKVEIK

Variants of: B1
assaySummary: yeast display scFab, FACS + sequencing

# mutationNotation, non-specific binding call
measured = [
    ("YRGRGVSS", "binds"),
    ("YTTGGAAV", "no binding"),
    ("YAGRGDSA", "no binding"),
    ("YRAGGVGF", "binds"),
    ("YAGKGFGA", "binds"),
    ("DATGGDVV", "no binding"),
    ("DAKEGDAV", "no binding"),
    ("FKEGGSAA", "binds"),
    ("VRTEDSLV", "no binding"),
    ("FATKGFGD", "binds"),
    ("FRGRDFLF", "binds"),
    ("YRKRGAAD", "binds"),
    ("FKGEGFGS", "binds"),
    ("FGAATDGV", "binds"),
    ("YRRRGASF", "binds"),
    ("YRGRGFLV", "binds"),
    ("YKGRGASD", "binds"),
    ("DRGRDAGD", "no binding"),
    ("YKGKGSSS", "binds"),
    ("DEGGTDAA", "no binding"),
    ("VKGGAAVY", "no binding"),
    ("FAGRGYSD", "binds"),
]

Reference for the values: the emibetuzumab library of Makowski et al. (2022)
